pKd: −log10 of the molar value.
Reported pKd against BTK (Homo sapiens, UniProt Q06187), gathered from multiple publications, appears below.
Sequence (Q06187 whole entry): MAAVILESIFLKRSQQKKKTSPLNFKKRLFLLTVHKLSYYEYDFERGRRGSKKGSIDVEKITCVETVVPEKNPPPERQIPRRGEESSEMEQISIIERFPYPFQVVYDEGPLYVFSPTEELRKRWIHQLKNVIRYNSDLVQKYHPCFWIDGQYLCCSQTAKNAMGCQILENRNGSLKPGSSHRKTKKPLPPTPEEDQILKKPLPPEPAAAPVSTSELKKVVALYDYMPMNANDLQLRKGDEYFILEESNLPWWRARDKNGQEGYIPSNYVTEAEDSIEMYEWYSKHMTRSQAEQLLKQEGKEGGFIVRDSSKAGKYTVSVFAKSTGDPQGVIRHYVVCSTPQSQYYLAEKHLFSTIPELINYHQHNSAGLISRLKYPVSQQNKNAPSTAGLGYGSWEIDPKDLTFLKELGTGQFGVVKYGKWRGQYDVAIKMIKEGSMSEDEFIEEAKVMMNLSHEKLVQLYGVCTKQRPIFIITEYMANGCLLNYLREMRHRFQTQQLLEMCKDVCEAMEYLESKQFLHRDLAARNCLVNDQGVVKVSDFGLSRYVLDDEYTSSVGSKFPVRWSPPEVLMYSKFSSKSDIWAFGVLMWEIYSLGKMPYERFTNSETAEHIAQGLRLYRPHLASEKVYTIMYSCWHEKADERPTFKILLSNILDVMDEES

Worked cases, pKd given:
COMPOUND	pKd
C=CC(=O)Nc1cc2c(Nc3ccc(Oc4ccccc4)cc3)ncnc2cc1OCC	8.92
C=CC(=O)Nc1cc2c(Nc3ccc(Oc4ccccc4)cc3)ncnc2cc1O[C@H]1CCOC1	> 7.00
CN(C/C=C/C(=O)N1CCC[C@@H](n2nc(-c3ccc(Oc4ccccc4)cc3)c3c(N)ncnc32)C1)CCOCCOCCOCCOCCNS(=O)(=O)c1ccc(Nc2ncc(Br)c(Nc3cccc(F)c3C(N)=O)n2)cc1	> 7.30

List the reported pKd of each compound below.
1. Cn1nc(Nc2cc(-c3cccc(-n4ccc5cc(C(C)(C)C#N)cc(F)c5c4=O)c3CO)nn(C)c2=O)cc1CN1CCC1
2. Nc1ncnc2c1c(-c1ccc(Oc3ccccc3)cc1)nn2C[C@@H]1SSC[C@@H]1O (relative stereo)
3. CCc1cnn2c(NCc3ccc(OCCOCCOCCOC4CCN(C/C=C/C(=O)N5CCC[C@@H](n6nc(-c7ccc(Oc8ccccc8)cc7)c7c(N)ncnc76)C5)CC4)nc3)cc(N3CCCC[C@H]3CCO)nc12

Result string:
8.83
7.00 to 8.30
> 7.30

---

pKd: −log10 of the molar value.
Here is a set of compounds with reported pKd for BTK (Homo sapiens, UniProt Q06187), compiled from the literature.

Reference set (2 entries):
COMPOUND	RESULT
C[C@@H]1COCCN1c1nc(N2CCOC[C@H]2C)c2ccc(-c3cccc(C(=O)NCCOCCOCCOCCOC/C=C/C(=O)N4CCC[C@@H](n5nc(-c6ccc(Oc7ccccc7)cc6)c6c(N)ncnc65)C4)c3)nc2n1	6.30 to 7.30
CCc1cnn2c(NCc3ccc(CCOCCOCCN(C)C/C=C/C(=O)N4CCC[C@@H](n5nc(-c6ccc(Oc7ccccc7)cc6)c6c(N)ncnc65)C4)nc3)cc(N3CCCC[C@H]3CCO)nc12	> 7.30

Batch request: pKd for each of the following compounds.
1. CC#CC(=O)NCCCC(=O)c1nc(-c2ccc(C(=O)Nc3ccccn3)cc2)c2c(N)nccn12
2. CCOc1cc2ncnc(Nc3ccc(Oc4ccccc4)cc3)c2cc1NC(=O)/C=C/CN(C)C
3. Nc1ncnc2c1c(-c1ccc(Oc3ccccc3)cc1)nn2C[C@@H]1SSC[C@H]1OCc1ccccc1 (relative stereo)
4. CC[C@@H]1C(=O)N(C)c2cnc(Nc3ccc(C(=O)NCCCCCCCCOC/C=C/C(=O)N4CCC[C@@H](n5nc(-c6ccc(Oc7ccccc7)cc6)c6c(N)ncnc65)C4)cc3OC)nc2N1C1CCCC1
5. CCN1CCN(c2ccc(Nc3ncnc(N(C)C(=O)Nc4c(Cl)c(OC)c(Cl)c(OC)c4Cl)n3)cc2)CC1

Result string:
[7.54, 8.59, "5.00 to 6.00", "6.30 to 7.30", "< 5.00"]

Each of the following entries comes with a recorded value; kindly state pKd for each.
1. COCCNCc1ccc(Nc2cc(-c3cccc(N4CCc5cc(C(C)(C)C)ccc5C4=O)c3CO)cn(C)c2=O)nc1
2. CN(C/C=C/C(=O)N1CCC[C@@H](n2nc(-c3ccc(Oc4ccccc4)cc3)c3c(N)ncnc32)C1)CCCN1CCN(CCCNS(=O)(=O)c2ccc(Nc3ncc(Br)c(Nc4cccc(F)c4C(N)=O)n3)cc2)CC1

Result string:
9.92
> 7.30
